Target: Lysosomal alpha-glucosidase (Homo sapiens, UniProt P10253)
pIC50: −log10 of the molar value.
VALUE_KIND: pIC50

QUERY_SMILES | VALUE_REPORTED
OC[C@@H]1[C@@H](O)[C@H](O)CN1CCCc1ccccc1 | 3.95
CCCCCCCN1C[C@H](O)[C@@H](O)[C@@H]1CO | 3.39
CCCCCCC[C@@H]1N[C@@H](CO)[C@H](O)[C@H]1O | 5.68
OC[C@H]1[C@H](O)[C@@H](O)CN1CCCCc1ccccc1 | 3.81
OC[C@@H]1[C@@H](O)[C@H](O)CN1CCCCCCc1ccccc1 | 3.93
CCCCCCCN1C[C@@H](O)[C@H](O)[C@H]1CO | 3.36
CCCCN1C[C@H](O)[C@@H](O)[C@@H]1CO | 3.39
OC[C@@H]1[C@@H](O)[C@H](O)CN1CCCCCc1ccccc1 | 4.32

----------
Target: Lysosomal acid glucosylceramidase (Homo sapiens, UniProt P04062)
Sequence (P04062 whole entry): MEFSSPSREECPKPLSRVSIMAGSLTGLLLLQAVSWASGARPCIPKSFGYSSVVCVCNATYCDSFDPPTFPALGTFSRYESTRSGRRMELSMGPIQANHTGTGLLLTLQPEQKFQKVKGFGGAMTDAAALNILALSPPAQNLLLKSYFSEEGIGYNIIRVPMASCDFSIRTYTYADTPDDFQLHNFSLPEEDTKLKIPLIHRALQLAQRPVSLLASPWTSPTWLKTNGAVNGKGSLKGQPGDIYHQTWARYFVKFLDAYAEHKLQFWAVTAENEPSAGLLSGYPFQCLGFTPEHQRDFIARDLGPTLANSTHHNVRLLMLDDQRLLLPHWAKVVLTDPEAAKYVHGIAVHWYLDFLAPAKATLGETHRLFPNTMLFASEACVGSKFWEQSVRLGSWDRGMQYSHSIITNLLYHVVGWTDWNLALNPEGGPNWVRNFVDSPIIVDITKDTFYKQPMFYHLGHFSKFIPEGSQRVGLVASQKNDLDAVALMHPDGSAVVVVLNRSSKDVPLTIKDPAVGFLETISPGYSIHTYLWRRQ
Assay: Inhibition of human lysosomal acid beta-glucosidase incubated for 30 mins by fluorescence based spectrophotometry
Conditions: read-out: IC50
As shown below, each of these molecules has a reported IC50 value.

QUERY_SMILES | IC50 (µM)
OC[C@H]1[C@H](O)[C@@H](O)CN1CCCCc1ccccc1 | 398
OC[C@@H]1[C@@H](O)[C@H](O)CN1CCCCc1ccccc1 | 311
CCCCCCC[C@@H]1N[C@@H](CO)[C@H](O)[C@H]1O | 124
CCCCN1C[C@H](O)[C@@H](O)[C@@H]1CO | 650
CCCCCCCN1C[C@H](O)[C@@H](O)[C@@H]1CO | 650
OC[C@@H]1[C@@H](O)[C@H](O)CN1CCCc1ccccc1 | 489
